We begin with a simple list: items and their reported composite z-score.
Molecular target: Torsin-1A (Homo sapiens) (UniProt O14656)
Sequence (O14656 whole entry, looked up): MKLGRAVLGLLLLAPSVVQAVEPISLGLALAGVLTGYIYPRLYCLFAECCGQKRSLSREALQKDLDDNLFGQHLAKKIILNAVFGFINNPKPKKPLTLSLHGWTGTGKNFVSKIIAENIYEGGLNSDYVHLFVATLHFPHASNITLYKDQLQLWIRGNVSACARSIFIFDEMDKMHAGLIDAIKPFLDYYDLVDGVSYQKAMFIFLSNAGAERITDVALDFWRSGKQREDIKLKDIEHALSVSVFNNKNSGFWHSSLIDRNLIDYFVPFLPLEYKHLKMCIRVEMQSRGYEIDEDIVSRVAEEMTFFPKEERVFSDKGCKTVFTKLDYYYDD
Test: torsin A binders from cell lysate, primary screen, small-molecule microarray, wild-type, 635/667 nm (AID 1149)
Details: COS7 hTOR1A-WT lysate, 635 nm fluorescence, higher = more signal
Please respond with just the number, no unit label.

Worked examples follow.
[
  {
    "COMPOUND": "CC(C)[Si](OCCCNS(=O)(=O)c1ccc(Br)cc1)(C(C)C)C(C)C",
    "composite z-score": 0.923
  },
  {
    "COMPOUND": "[N-]=[N+]=NCc1ccccc1[C@H]1OC(c2ccc(OCCCO)cc2)=N[C@@]1(Cc1ccccc1N=[N+]=[N-])C(=O)NCc1ccccc1",
    "composite z-score": 0.22
  },
  {
    "COMPOUND": "COCCOC(=O)N1C(=O)[C@@]2(c3cc(C#CCNC(N)=O)ccc31)[C@H](c1ccc(OCCO)cc1)N1[C@H](c3ccccc3)[C@H](c3ccccc3)OC(=O)[C@H]1[C@@H]2C(=O)N1CCCCCCC1",
    "composite z-score": 0.0499
  },
  {
    "COMPOUND": "C=C(CCCC)/C(=C/C[C@H](OC(=O)c1ccncc1)c1cccc(OCCO)c1)c1cc(C(=O)OC)ccc1OC",
    "composite z-score": 0.349
  }
]

// query Which composite z-score is listed for CCOC(=O)C[C@H]1[C@H](OC(=O)Cc2ccc3c(c2)OCO3)[C@@H](NC(=O)CC(C)C)c2cc(OCCCO)ccc2N1C(=O)c1ccccc1 ?
// result -0.155

// query Which composite z-score is listed for O=C1OCC=C[C@H]2OC34C=CCN(Cc5ccccc5)C(=O)[C@H]3N(CCCCCO)C(=O)[C@@H]4[C@@H]12 (some centres not stated) ?
// result -0.391

// query Which composite z-score is listed for C=C(CCCC)/C(=C/C[C@@H](OC(=O)c1ccncc1)c1cccc(OCCO)c1)c1cc(C(=O)OC)ccc1OC ?
// result 1.13
